Reference for the values: paper PMC8000448

SUBJECT_OF_TEST: CYP2C8 (Homo sapiens)
Construct: pooled HLMs (0.25 mg/mL); tissue XenoTech H2630; host or cells: pooled human liver microsomes, mixed gender
Sequence (P10632 whole entry): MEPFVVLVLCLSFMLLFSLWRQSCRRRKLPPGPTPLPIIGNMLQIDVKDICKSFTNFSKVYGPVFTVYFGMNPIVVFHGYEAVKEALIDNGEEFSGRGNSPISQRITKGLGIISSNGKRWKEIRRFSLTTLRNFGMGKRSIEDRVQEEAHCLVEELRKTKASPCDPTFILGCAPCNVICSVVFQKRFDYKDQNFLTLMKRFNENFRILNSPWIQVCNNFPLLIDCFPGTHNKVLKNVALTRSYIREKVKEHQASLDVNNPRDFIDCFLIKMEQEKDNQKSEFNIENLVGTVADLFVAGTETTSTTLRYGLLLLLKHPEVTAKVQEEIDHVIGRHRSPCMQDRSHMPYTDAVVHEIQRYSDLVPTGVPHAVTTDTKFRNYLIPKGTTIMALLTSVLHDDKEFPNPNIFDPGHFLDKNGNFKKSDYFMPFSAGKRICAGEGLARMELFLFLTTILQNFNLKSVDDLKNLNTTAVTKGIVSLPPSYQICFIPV
ASSAY_OVERVIEW: CYP2C8 inhibition in HLMs (amodiaquine)
Type: in vitro ADME
EXPERIMENTAL_CONTEXT: human, pooled human liver microsomes, pH 7.4, probe amodiaquine, RI/TDI fold shift
Experimental: Lignans were first dissolved in methanol. […] All microsomal incubations were performed in triplicate.
MEASUREMENT_LABEL: IC50 shift at 10 min
Write the value as a bare number.

-- ask Field request: IC50 shift at 10 min | item: COc1cc2c(c(OC)c1OC)-c1c(cc3c(c1OC)OCO3)C[C@H](C)[C@H](C)C2 [Gomisin N, gomisin N]
-- reply 3.2

###

SUBJECT_OF_TEST: CYP3A (Homo sapiens, UniProt P08684)
Sequence (P08684 2-503): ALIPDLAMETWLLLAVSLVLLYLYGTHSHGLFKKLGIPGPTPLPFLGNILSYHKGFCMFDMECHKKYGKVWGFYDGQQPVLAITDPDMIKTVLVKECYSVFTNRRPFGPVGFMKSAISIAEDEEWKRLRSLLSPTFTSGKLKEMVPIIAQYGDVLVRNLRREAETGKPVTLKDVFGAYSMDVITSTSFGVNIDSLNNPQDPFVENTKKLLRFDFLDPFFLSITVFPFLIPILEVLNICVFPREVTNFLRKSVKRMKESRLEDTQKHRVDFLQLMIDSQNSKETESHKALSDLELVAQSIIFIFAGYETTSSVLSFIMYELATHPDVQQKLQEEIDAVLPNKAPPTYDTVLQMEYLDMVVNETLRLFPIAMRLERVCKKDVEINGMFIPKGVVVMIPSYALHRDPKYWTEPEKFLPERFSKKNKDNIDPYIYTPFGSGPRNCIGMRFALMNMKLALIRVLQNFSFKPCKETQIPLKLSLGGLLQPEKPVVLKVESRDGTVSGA
ASSAY_OVERVIEW: CYP3A inhibition in HLMs (midazolam, nifedipine, testosterone);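 further: pooled HLMs at 0.25 mg/mL in phosphate buffer, inhibitor across 0–50 µM, 10 min reaction at 37 °C after preincubation, probe metabolite quantified by LC-MS/MS, triplicate incubations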
EXPERIMENTAL_CONTEXT: pooled human liver microsomes, pH 7.4, probe testosterone (cocktail set B)
MEASUREMENT_LABEL: IC50 shift at 10 min
Write the value as a bare number.

-- ask Field request: IC50 shift at 10 min | item: COc1cc2c(c(OC)c1OC)-c1c(cc3c(c1OC)OCO3)C[C@H](C)[C@H](C)C2
-- reply 2.4

###

SUBJECT_OF_TEST: CYP2B6 (Homo sapiens, UniProt P20813)
Construct: pooled HLMs (0.25 mg/mL); tissue XenoTech H2630; host or cells: pooled human liver microsomes, mixed gender
Sequence (P20813 whole entry): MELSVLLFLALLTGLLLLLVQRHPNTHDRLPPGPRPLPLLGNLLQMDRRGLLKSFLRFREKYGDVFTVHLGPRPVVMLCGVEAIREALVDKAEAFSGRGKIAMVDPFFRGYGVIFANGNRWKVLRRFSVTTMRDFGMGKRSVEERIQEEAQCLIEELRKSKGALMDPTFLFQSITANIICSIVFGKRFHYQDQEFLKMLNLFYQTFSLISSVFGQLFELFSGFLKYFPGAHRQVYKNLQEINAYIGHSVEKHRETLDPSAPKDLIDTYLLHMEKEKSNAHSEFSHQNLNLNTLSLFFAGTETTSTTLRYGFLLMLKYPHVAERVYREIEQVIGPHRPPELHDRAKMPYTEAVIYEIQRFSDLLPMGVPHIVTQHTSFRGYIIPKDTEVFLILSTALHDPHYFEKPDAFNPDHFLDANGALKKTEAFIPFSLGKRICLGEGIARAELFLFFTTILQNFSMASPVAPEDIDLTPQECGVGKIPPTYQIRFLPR
ASSAY_OVERVIEW: CYP2B6 inhibition in HLMs (bupropion)
Format: in vitro ADME
EXPERIMENTAL_CONTEXT: reversible inhibition, read-out: IC50 RI, CYP2B6
MEASUREMENT_LABEL: IC50 (µM)
A number alone suffices; assume µM.

Consider the reported IC50 for these compounds:
{"STRUCTURE_SMILES": "COc1cc2c(c(OC)c1OC)-c1c(cc3c(c1OC)OCO3)C[C@H](C)[C@H](C)C2", "ENDPOINT_RESULT": 38.3}
{"STRUCTURE_SMILES": "COc1cc2c(c(OC)c1OC)-c1c(cc(OC)c(OC)c1OC)C[C@](C)(O)[C@@H](C)C2", "ENDPOINT_RESULT": 14.7}
{"STRUCTURE_SMILES": "COc1c2c(cc3c1-c1c(cc4c(c1OC)OCO4)C[C@H](C)[C@H](C)C3)OCO2", "ENDPOINT_RESULT": 2.9}

Now consider the entry below.
-- ask Field request: IC50 | item: COc1cc2c(c(OC)c1OC)-c1c(cc3c(c1OC)OCO3)C[C@H](C)[C@](C)(O)[C@H]2OC(=O)c1ccccc1
-- reply 33.1

###

SUBJECT_OF_TEST: six UGT enzymes
ASSAY_OVERVIEW: UGT inhibition in HLMs, summary statements over several isoforms
EXPERIMENTAL_CONTEXT: UGTs other than UGT1A1 and UGT1A3
MEASUREMENT_LABEL: IC50

-- ask Field request: IC50 | item: COc1cc2c(c(OC)c1OC)-c1c(cc3c(c1OC)OCO3)C[C@H](C)[C@](C)(O)[C@H]2OC(=O)c1ccccc1 [Gomisin C, gomisin C]
-- reply > 50 µM
